Reference source for all entries: the supplement of paper PMC10724198

test system: Saccharomyces cerevisiae; experiment: protein stability index of tFT-peptide fusion (C-terminal peptide) (PSI (0-1 scale)); higher = more stable (slower turnover); conditions: genetic background: wild type; temperature: 30 C;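 also: PSI is a weighted mean of sequencing reads over stability bins, variants kept only with over 10 reads, mCherry proximal and sfGFP distal, peptide attached via GGGS linker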
Criterion: protein stability index meeting or surpassing 0.7. Met: 1. Not met: 0.

Answer whether protein stability index of `DQAWYFVRLAGD` is greater than or equal to 0.7.
1

Answer whether protein stability index of `FLGGWVCGWPQF` is greater than or equal to 0.7.
1

Answer whether protein stability index of `VSGFVAALRIFL` is greater than or equal to 0.7.
0

Answer whether protein stability index of `AGVTGGDGYGRW` is greater than or equal to 0.7.
0

Answer whether protein stability index of `CFCSFQFVRLWV` is greater than or equal to 0.7.
0

Answer whether protein stability index of `KLNKKKKITIRI` is greater than or equal to 0.7.
0

Answer whether protein stability index of `SKREYGKEYKRK` is greater than or equal to 0.7.
0

Answer whether protein stability index of `RIRGGVLYKGVG` is greater than or equal to 0.7.
0
